# Measured On: AtPPO1 S305L L361D V365M (SEQ ID NO.133) (Arabidopsis thaliana, UniProt P55826, S305L/V365M/Y361D)
# Sequence (P55826 35-537 S305L/Y361D/V365M): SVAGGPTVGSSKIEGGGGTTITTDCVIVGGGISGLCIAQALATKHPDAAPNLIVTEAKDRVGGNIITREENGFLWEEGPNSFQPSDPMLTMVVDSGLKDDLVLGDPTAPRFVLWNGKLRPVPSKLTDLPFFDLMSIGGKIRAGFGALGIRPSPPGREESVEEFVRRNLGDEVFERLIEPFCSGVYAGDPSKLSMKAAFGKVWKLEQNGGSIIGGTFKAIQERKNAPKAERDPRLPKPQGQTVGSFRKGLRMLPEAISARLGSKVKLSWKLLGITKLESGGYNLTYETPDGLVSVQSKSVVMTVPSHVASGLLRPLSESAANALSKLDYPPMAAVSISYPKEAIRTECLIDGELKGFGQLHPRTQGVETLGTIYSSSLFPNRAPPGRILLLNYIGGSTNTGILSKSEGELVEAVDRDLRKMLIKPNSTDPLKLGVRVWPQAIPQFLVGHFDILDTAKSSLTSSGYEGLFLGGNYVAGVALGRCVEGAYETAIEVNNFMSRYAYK
# Test Details: fluorescent Protoporphyrinogen Oxidase assay, crude extract
# Assay type: biochemical
# Condition Description: read-out: percentage inhibition
Short version: inhibition at 1 ppm at least 60% is 1, less is 0.

Would you please look over these solved cases?
CCOC(=O)[C@]1(C)CC(c2cc(-n3c(=O)n(C)c(=S)n(C)c3=O)c(F)cc2Cl)=NO1 [Herbicide D]
1
C#CCN1C(=O)C(F)(F)Oc2cc(F)c(-n3c(=O)n(C)c(=S)n(C)c3=O)cc21 [Herbicide B, trifludimoxazin]
1
CC(C)N(C)S(=O)(=O)NC(=O)c1cc(-n2c(=O)cc(C(F)(F)F)n(C)c2=O)c(F)cc1Cl [Herbicide E, saflufenacil]
0
CCOC(=O)COc1ncccc1Oc1cc(-n2c(=O)cc(C(F)(F)F)n(C)c2=O)c(F)cc1Cl [Herbicide A, epyrifenacil]
0

// switching to the query molecule
Query: Say whether CCOC(=O)C1(C)CC(c2cc(-n3c(=O)cc(C(F)(F)F)n(C)c3=O)c(F)cc2Cl)=NO1 (centres unmarked) [Herbicide C] shows inhibition at 1 ppm of 60% or more.
Result: 0

====

# Measured On: AtPPO1 S305L L361D V365M (SEQ ID NO.133) (Arabidopsis thaliana, UniProt P55826, S305L/V365M/Y361D)
# Test Details: fluorescent Protoporphyrinogen Oxidase assay, crude extract
# Type: biochemical
# Condition Description: read-out: percentage inhibition
# Method: A pET24 plasmid containing a DNA sequence encoding each identified variant mutant of AtPPO1 derived from Arabidopsis thaliana, codon-optimised for expression in E. coli, and under control of a T7 promoter, was synthesised by Twist Bioscience. […] Protein concentration was measured and calculated using the absorbance at 280 nm. Extracts were diluted 1 in 4 and 10 uL was analysed by SDS PAGE. […]
Quick reference for inhibition at 100 ppm among some compounds
Answer with a number only, understood to be in %.

CCOC(=O)COc1ncccc1Oc1cc(-n2c(=O)cc(C(F)(F)F)n(C)c2=O)c(F)cc1Cl [Herbicide A, epyrifenacil]
100
C#CCN1C(=O)C(F)(F)Oc2cc(F)c(-n3c(=O)n(C)c(=S)n(C)c3=O)cc21 [Herbicide B, trifludimoxazin]
100
CCOC(=O)C1(C)CC(c2cc(-n3c(=O)cc(C(F)(F)F)n(C)c3=O)c(F)cc2Cl)=NO1 (centres unmarked) [Herbicide C]
100
CCOC(=O)[C@]1(C)CC(c2cc(-n3c(=O)n(C)c(=S)n(C)c3=O)c(F)cc2Cl)=NO1 [Herbicide D]
100

Kindly review the next compound as well.
Query: Identify measured inhibition at 100 ppm corresponding to CC(C)N(C)S(=O)(=O)NC(=O)c1cc(-n2c(=O)cc(C(F)(F)F)n(C)c2=O)c(F)cc1Cl [Herbicide E, saflufenacil]
Result: 88

====

# Measured On: AtPPO1 S305L V365M (SEQ ID NO.128) (Arabidopsis thaliana, UniProt P55826, S305L/V365M)
# Construct: made in house; host or cells: E. coli BL21 (DE3) hemG, crude extract
# Sequence (P55826 35-537 S305L/V365M): as the sequence (P55826 35-537 S305L/Y361D/V365M) above, with D327Y counted along it
# Test Details: fluorescent Protoporphyrinogen Oxidase assay, crude extract
# Type: biochemical
# Condition Description: read-out: percentage inhibition
Endpoint Label: inhibition at 10 ppm
Answer with the number, then the unit.

Answered examples (4):
CCOC(=O)[C@]1(C)CC(c2cc(-n3c(=O)n(C)c(=S)n(C)c3=O)c(F)cc2Cl)=NO1 [Herbicide D]
96%
C#CCN1C(=O)C(F)(F)Oc2cc(F)c(-n3c(=O)n(C)c(=S)n(C)c3=O)cc21 [Herbicide B, trifludimoxazin]
95%
CCOC(=O)C1(C)CC(c2cc(-n3c(=O)cc(C(F)(F)F)n(C)c3=O)c(F)cc2Cl)=NO1 (centres unmarked) [Herbicide C]
95%
CC(C)N(C)S(=O)(=O)NC(=O)c1cc(-n2c(=O)cc(C(F)(F)F)n(C)c2=O)c(F)cc1Cl [Herbicide E, saflufenacil]
91%

Query: Please give the documented inhibition at 10 ppm of CCOC(=O)COc1ncccc1Oc1cc(-n2c(=O)cc(C(F)(F)F)n(C)c2=O)c(F)cc1Cl [Herbicide A, epyrifenacil]
Result: 92%
